system: Prot. mirabilis; experiment: MIC, agar-dilution technique, standard in vitro test; type: cell-based; details: Proteus mirabilis; strain code A8432057; Isosensitest agar; inoculum 10^4 CFU./spot; read-out: minimum inhibitory concentration (MIC)
Please provide measured MIC for the entries that follow.
Write the value in µg/mL as a bare number.

# value of MIC, Prot. mirabilis, item C[n+]1ccc(NCC2=C(C(=O)[O-])N3C(=O)[C@@H](NC(=O)[C@H](NC(=O)c4n[nH]c(=O)nc4O)c4ccc(O)cc4)[C@H]3SC2)cc1 [Example 82] = 32

Form field, MIC with Prot. mirabilis, item C[n+]1ccc(NCC2=C(C(=O)[O-])N3C(=O)[C@@H](NC(=O)/C(=N\OC4(C(=O)O)CCC4)c4csc(N)n4)[C@H]3SC2)cc1 [Example 74] : 0.13

Record CCN1CCN(C(=O)N[C@@H](C(=O)N[C@@H]2C(=O)N3C(C(=O)[O-])=C(CNc4cc[n+](C)cc4)CS[C@H]23)c2ccc(O)cc2)C(=O)C1=O [Example 81] ; system Prot. mirabilis; MIC = 32

Prot. mirabilis assay, molecule C=CCO/N=C(\C(=O)N[C@@H]1C(=O)N2C(C(=O)[O-])=C(CNc3cc[n+](C)cc3)CS[C@H]12)c1csc(N)n1 [Example 70] , recorded MIC = 0.5

# MIC measured on Prot. mirabilis for item C[n+]1ccc(NCC2=C(C(=O)[O-])N3C(=O)[C@@H](NC(=O)/C(=N\OCC#N)c4csc(N)n4)[C@H]3SC2)cc1 [Example 96] = 0.064

Value (MIC, Prot. mirabilis) for record C[n+]1ccc(NCC2=C(C(=O)[O-])N3C(=O)[C@@H](NC(=O)/C(=N\OC(C)(C)C(=O)O)c4csc(N)n4)[C@H]3SC2)cc1 [Example 23] = 0.064

// MIC (Prot. mirabilis) for CO/N=C(\C(=O)N[C@@H]1C(=O)N2C(C(=O)O)=C(CNc3cc[n+](C)cc3)CS[C@H]12)c1csc(N)n1 [Example 9] = 0.064

Values were extracted from patent US4678781A.
